Target: T1, rat beta CGRP (SEQ ID NO: 83) (rat, not fully specified)
T1 construct: also called rat βCGRP; rat β-CGRP
T1 peptide: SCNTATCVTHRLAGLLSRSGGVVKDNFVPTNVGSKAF
Experiment: SPR, 37 C, mutein captured, CGRP analyte
PARAMETER: koff (s⁻¹)
Form entry: value (s⁻¹) — number only.

Record excerpt, results attached:
{"BINDER": "lipocalin mutein SEQ ID NO: 4 (designed binder, biotinylated by NHS chemistry for capture in SPR) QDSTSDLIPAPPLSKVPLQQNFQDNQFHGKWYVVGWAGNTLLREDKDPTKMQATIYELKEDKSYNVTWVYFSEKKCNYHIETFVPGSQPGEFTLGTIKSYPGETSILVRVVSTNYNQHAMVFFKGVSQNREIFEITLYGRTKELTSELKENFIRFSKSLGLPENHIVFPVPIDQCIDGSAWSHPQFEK", "koff (s⁻¹)": 0.00365}
{"BINDER": "lipocalin mutein SEQ ID NO: 27 (designed binder, biotinylated by NHS chemistry for capture in SPR) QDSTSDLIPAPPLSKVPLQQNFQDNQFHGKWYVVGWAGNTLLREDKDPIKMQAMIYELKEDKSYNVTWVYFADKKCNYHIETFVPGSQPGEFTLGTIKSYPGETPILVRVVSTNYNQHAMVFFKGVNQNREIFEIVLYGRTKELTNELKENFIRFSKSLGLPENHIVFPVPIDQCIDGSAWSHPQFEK", "koff (s⁻¹)": "2.64e-05"}

Consider now this further binder.
Ask: So what's the measured koff for this one? lipocalin mutein SEQ ID NO: 17 (designed binder, biotinylated by NHS chemistry for capture in SPR) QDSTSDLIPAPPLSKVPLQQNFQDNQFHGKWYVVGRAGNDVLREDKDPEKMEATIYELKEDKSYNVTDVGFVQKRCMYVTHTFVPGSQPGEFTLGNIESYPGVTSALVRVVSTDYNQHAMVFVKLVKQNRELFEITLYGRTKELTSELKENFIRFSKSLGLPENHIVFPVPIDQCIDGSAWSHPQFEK
Reply: 5.99e-05

Source of measurements: patent US20190338002A1
